- tgt: LPAAT-β (Homo sapiens, UniProt O15120)
- Sequence (O15120 24-278): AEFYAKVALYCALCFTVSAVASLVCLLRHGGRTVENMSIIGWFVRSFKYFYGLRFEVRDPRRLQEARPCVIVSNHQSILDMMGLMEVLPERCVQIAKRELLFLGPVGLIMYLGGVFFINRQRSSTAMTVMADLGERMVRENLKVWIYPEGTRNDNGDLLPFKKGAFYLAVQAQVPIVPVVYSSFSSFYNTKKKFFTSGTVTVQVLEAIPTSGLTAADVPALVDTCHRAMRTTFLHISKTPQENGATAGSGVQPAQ
- testSummary: DTNB (Ellman's reagent) 96-well plate screening assay of LPAAT-β enzymatic activity
- Format: biochemical
- Design: The assay utilizes full-length, recombinant, baculovirus-produced LPAAT-β; made in house
- conditionDescription: hit from the Life Chemicals library, before resynthesis; read-out: IC50 of the hit in the library screen

moleculeSmiles: C=CCc1cccc(/C=N/NC(N)=S)c1O
IC50: 0.1 µM

Data provenance is patent US20170027893A1.
